test system: Salmonella typhimurium; assay: Antibacterial activity, MIC by Agar dilution method, standard test strain 16; format: cell-based; settings: Salmonella enterica, 10^7 CFU/ml, 37° C., 18 hours
Endpoint Label: MIC (µg/mL)
Supply the numeric figure in µg/mL, leaving out any unit text.

{"columns": ["Molecule", "MIC [µg/mL]"],
 "data": [
  ["CO/N=C(\\C(=O)N[C@@H]1C(=O)N2C(C(=O)[O-])=C(C[n+]3cn(N)cn3)CS[C@H]12)c1csc(N)n1", 0.098],
  ["CO/N=C(\\C(=O)N[C@@H]1C(=O)N2C(C(=O)[O-])=C(C[N+]3(N)CCCC3)CS[C@H]12)c1csc(N)n1", 0.781]
]}

Now take the following molecule into account.
-- ask May I ask what MIC has been recorded for CON=C(C(=O)NC1C(=O)N2C(C(=O)[O-])=C(C[n+]3nn(N)c4ccccc43)CSC12)c1csc(N)n1 (stereo not drawn) ?
-- reply 0.195
